Biological target: equine FcRn complex (equine) (UniProt F6XZ61)
Sequence (chain, as listed by the source, chain 1 of 2): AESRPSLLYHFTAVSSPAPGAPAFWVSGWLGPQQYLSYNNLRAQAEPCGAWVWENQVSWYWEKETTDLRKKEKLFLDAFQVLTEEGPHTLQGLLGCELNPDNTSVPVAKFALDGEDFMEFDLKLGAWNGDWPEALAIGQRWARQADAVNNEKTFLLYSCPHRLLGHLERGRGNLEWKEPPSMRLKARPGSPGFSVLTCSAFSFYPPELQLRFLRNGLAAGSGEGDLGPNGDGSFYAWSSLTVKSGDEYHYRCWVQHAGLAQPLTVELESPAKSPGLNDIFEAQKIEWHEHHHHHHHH
Sequence (P30441 other isoform, or with tags, fused parts or gaps, chain 2 of 2): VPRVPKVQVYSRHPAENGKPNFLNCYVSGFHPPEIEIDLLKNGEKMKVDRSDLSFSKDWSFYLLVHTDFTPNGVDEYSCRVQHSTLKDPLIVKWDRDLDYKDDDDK
Assay: SPR (Biacore 8K+), pH 5.9, 25 C; FcRn captured by anti-His, IgG as analyte; 1:1 kinetic model
endpoint label: Fold increase over wild-type KD

As a guide, the following entries are already answered.
1. Equine Y436H (antibody, part only; not given: variable domains and light chain, IgG1, not shown: another chain or arm of the molecule) Fc: APELLGGPSVFIFPPNPKDTLMITRTPEVTCVVVDVSQENPDVKFNWYMDGVEVRTATTRPKEEQFNSTYRVVSVLRIQHQDWLSGKEFKCKVNNQALPQPIERTITKTKGRSQEPQVYVLAPHPDELSKSKVSVTCLVKDFYPPEINIEWQSNGQPELETKYSTTQAQQDSDGSYFLYSKLSVDRNRWQQGTTFTCGVMHEALHNHHTQKNVSKNPGK	0.9 fold
2. Equine M252Y (antibody, part only; not given: variable domains, light chain, IgG1, not shown: another chain or arm of the molecule) Fc: APELLGGPSVFIFPPNPKDTLYITRTPEVTCVVVDVSQENPDVKFNWYMDGVEVRTATTRPKEEQFNSTYRVVSVLRIQHQDWLSGKEFKCKVNNQALPQPIERTITKTKGRSQEPQVYVLAPHPDELSKSKVSVTCLVKDFYPPEINIEWQSNGQPELETKYSTTQAQQDSDGSYFLYSKLSVDRNRWQQGTTFTCGVMHEALHNHYTQKNVSKNPGK	2 fold

Fill in Fold increase over wild-type KD for record Equine Q309D (antibody, part only; not given: variable domains and light chain, IgG1, not shown: another chain or arm of the molecule) Fc: APELLGGPSVFIFPPNPKDTLMITRTPEVTCVVVDVSQENPDVKFNWYMDGVEVRTATTRPKEEQFNSTYRVVSVLRIDHQDWLSGKEFKCKVNNQALPQPIERTITKTKGRSQEPQVYVLAPHPDELSKSKVSVTCLVKDFYPPEINIEWQSNGQPELETKYSTTQAQQDSDGSYFLYSKLSVDRNRWQQGTTFTCGVMHEALHNHYTQKNVSKNPGK
1 fold
